# Test system: Mycobacterium tuberculosis
# test-method-notes: Antitubercular activity against extensively drug-resistant Mycobacterium tuberculosis after 21 days by BACTEC MGIT 960 method
# Format: functional
# recorded-conditions: 504 h
outcome-measure: MIC (µg/mL)
Numbers only, in µg/mL.

Sample answers from the record:
{"columns": ["molecule", "endpoint-unit", "recorded-result"],
 "data": [
  ["CC(C)=CCC/C(C)=C/CNCCN1[C@H]2C3C4CC5C6C4C2C6[C@@]1(O)C53.Cl.Cl (mixture of isomers)", "µg/mL", 4],
  ["CC(C)=CCC/C(C)=C/CNCCN[C@@H]1C2C3CC4C5C3CC2C5C41.Cl.Cl (mixture of isomers)", "µg/mL", 8],
  ["CC(C)=CCC/C(C)=C/CNCCN[C@@H]1C2C3CC4C5C3C1C5[C@@H](O)C42.Cl.Cl (mixture of isomers)", "µg/mL", 4],
  ["CC(C)=CCC/C(C)=C/CNC(=O)CN1[C@H]2C3C4CC5C6C4C2C6[C@@]1(O)C53 (mixture of isomers)", "µg/mL", 8],
  ["CC(C)=CCC/C(C)=C/CNCCN[C@]12O[C@H]3C4C5CC(C6C5C3C61)C42.Cl.Cl (mixture of isomers)", "µg/mL", 4]
]}

For each listed entry, give its MIC.
1. CC(C)=CCC/C(C)=C/CNCCNC1C2C3CC4C5CC(C42)C1C53.Cl.Cl (racemic)
2. CC(C)=CCC/C(C)=C/CNCCNC1C2CC3CC(C2)CC1C3.Cl.Cl (stereo not drawn)
3. CC(C)=CCC/C(C)=C/CNCC(=O)N[C@]12O[C@H]3C4C5CC(C6C5C3C61)C42 (mixture of isomers)

Output:
1: 2; 2: 4; 3: 8

The reported numbers originate from ChEMBL document CHEMBL2040749.
